Item-by-item account of relative CLso titer
tested on: Candidatus Liberibacter solanacearum in potato hairy roots; assay: relative CLso titer (% of untreated control); higher = less inhibition of bacterial titer; conditions: 10 µM; 72 h
Number plus unit, in that order.

structure=Clc1cccc(Cl)c1NC1=NCCN1 measured_quantity="relative CLso titer" value_reported=55.5%
structure=COc1ccc(O)cc1 measured_quantity="relative CLso titer" value_reported=173%
structure=NCCc1ccc(O)c(O)c1 measured_quantity="relative CLso titer" value_reported=117%
structure=CCN1CCC[C@H]1CNC(=O)c1cc(S(N)(=O)=O)ccc1OC measured_quantity="relative CLso titer" value_reported=118%

Continue with the molecule presented below.
-- ask Which value of relative CLso titer has been reported for Cc1cc(O)cc(C)c1Cl in the records?
-- reply 30.8%

---

tested on: Candidatus Liberibacter solanacearum in potato hairy roots; assay: relative CLso titer (% of untreated control); higher = less inhibition of bacterial titer; conditions: 10 µM; 72 h
measured-quantity: relative CLso titer (%)
# value in %; strip the unit string

-- ask What does the data say about its relative CLso titer? Entry: CC12CCC(CC1=O)C2(C)C (centres undefined)
-- reply 97

---

tested on: Candidatus Liberibacter solanacearum in potato hairy roots; test: relative CLso titer (% of untreated control); higher = less inhibition of bacterial titer; details: 10 µM; 72 h
measured-quantity: relative CLso titer (%)
State the answer as a number, implicitly in %.

Worked examples follow.
structure=CC(=O)OCC[N+](C)(C)C value_reported=96.2
structure=CN1CCC[C@@H]1CCO[C@](C)(c1ccccc1)c1ccc(Cl)cc1 value_reported=44.3

-- ask Look up relative CLso titer for this compound: N[C@@H]1CONC1=O
-- reply 177

-- ask // lookup relative CLso titer for COC1=CC(=O)C[C@@H](C)[C@]12Oc1c(Cl)c(OC)cc(OC)c1C2=O
-- reply 67.3

-- ask So what's the measured relative CLso titer for this one? CCCOc1cc(N)ccc1C(=O)OCCN(CC)CC
-- reply 102

-- ask # get_value(readout='relative CLso titer', item= CCN(CC)CCOC(=O)C1(C2CCCCC2)CCCCC1 )
-- reply 90.3

-- ask Name the reported relative CLso titer value associated with the compound COc1cc(CNC(=O)CCCC/C=C/C(C)C)ccc1O
-- reply 130

---

test system: Candidatus Liberibacter solanacearum in potato hairy roots; assay: relative CLso titer (% of untreated control); higher = less inhibition of bacterial titer; conditions: 10 µM; 72 h
Assign met to entries whose relative CLso titer meets or exceeds 90%; assign not met to the rest.

molecule="CO[C@@]1(NC(=O)C2SC(=C(C(N)=O)C(=O)O)S2)C(=O)N2C(C(=O)O)=C(CSc3nnnn3C)CS[C@@H]21 (some centres not stated)" assigned_category=met
molecule=CC1(C)OC(=O)C(OCC2CC2)=C1c1ccc(S(C)(=O)=O)cc1 assigned_category="not met"
molecule=O=C1NS(=O)(=O)c2ccccc21 assigned_category="not met"

-- ask # bool: relative CLso titer of NC12CC3CC(CC(C3)C1)C2 >= 90%
-- reply not met

-- ask Could you tell me if the measured relative CLso titer of CC1=C(/C=C/C(C)=C/C=C/C(C)=C/C(=O)O)C(C)(C)CCC1 reaches 90% or more?
-- reply met

-- ask Item C[C@]12CC[C@@H]3c4ccc(O)cc4CC[C@H]3[C@@H]1CC[C@@H]2OC(=O)CCC1CCCC1 with relative CLso titer of 90% or above?
-- reply met

-- ask Form field: relative CLso titer at least 90%? Entry: OCCN(CCO)c1nc(N2CCCCC2)c2nc(N(CCO)CCO)nc(N3CCCCC3)c2n1
-- reply met

-- ask Please indicate if the recorded relative CLso titer for CC1(C)S[C@@H]2[C@H](NC(=O)C(C(=O)O)c3ccccc3)C(=O)N2[C@H]1C(=O)O (some centres not stated) meets or exceeds 90%.
-- reply not met

-- ask Is the recorded value of relative CLso titer equal to or greater than 90% for this molecule? Oc1c(Cl)cc(Cl)cc1Sc1cc(Cl)cc(Cl)c1O
-- reply not met

-- ask Evaluate C/C=C(/C(=C/C)c1ccc(O)cc1)c1ccc(O)cc1 : relative CLso titer at minimum 90%?
-- reply met

-- ask Could you please find out whether Clc1ccccc1C(c1ccccc1)(c1ccccc1)n1ccnc1 has relative CLso titer that meets 90% or exceeds it?
-- reply not met

-- ask // inclusive: relative CLso titer at least 90%? input: Nc1ccc(S(=O)(=O)Nc2ccc(Cl)nn2)cc1
-- reply not met

-- ask Item C1CCN2C[C@@H]3C[C@@H](CN4CCCC[C@@H]34)[C@H]2C1 with relative CLso titer of 90% or above?
-- reply met
